Attribute: EC50
molecular target: T1, biotinylated NPDP-peptide (Plasmodium falciparum, also: biotinylated); test: ELISA, biotinylated peptide on avidin-coated plates, titrated IgG
T1 peptide: KQPADGNPDPNANPN
Where no end group is shown, it is not given here.
Entry rule: numbers only, all in µg/mL.

{"columns": ["binder", "measured_quantity", "recorded_number"],
 "data": [
  ["MGU10variant2 (antibody, V domains shown, Expressed as IgG1; also called MGU10v2) VH: QVQLVESGGGVVQPGRSLRLSCAASGFAFSNYGMNWVRQAPGKGLEWVAVIWHDGSLKYYTQSVKGRFTISRDNAKNTLFLQMDSLSADDTAMYYCTVWYLETPDEGFDIWGRGTMVTVSS VL: QLVLTQPPSASASLGVSVTLTCTLSHGHTSKAIAWHQQQPGKGPRYLMKVNSDGSHTKGAAVPDRFSGSTSGAERHFTISNLQSDDEADYYCQAWDSGIWVFGGGTKLTVL", "EC50", 0.0204],
  ["MGU10 (antibody, V domains shown, also called parental antibody MGU10) VH: QVQLVESGGGVVQPGRSLRLSCAASGFAFSNYGMNWVRQAPGKGLEWVAVIWHDGSLKYYTQSVKGRFTISRDNAKNTLFLQMDSLSADDTAMYYCTVWYLETPDDGFDIWGRGTMVTVSS VL: QLVLTQPPSASASLGVSVTLTCTLSHGHTSKAIAWHQQQPGKGPRYLMKVNSDGSHTKGAAVPDRFSGSTSGAERHFTISNLQSDDEADYYCQAWDSGIWVFGGGTKLTVL", "EC50", 0.0261],
  ["MGU10variant3 (antibody, V domains shown, Expressed as IgG1; also called MGU10v3) VH: QVQLVESGGGVVQPGRSLRLSCAASGFAFSNYGMNWVRQAPGKGLEWVAVIWHDGSLKYYTQSVKGRFTISRDNAKNTLFLQMDSLSADDTAMYYCTVWYLETPDDGFDIWGRGTMVTVSS VL: QLVLTQPPSASASLGVSVTLTCTLSHGHTSKAIAWHQQQPGKGPRYLMKVNSDGSHTKGAAVPDRFSGSTSGAERHFTISNLQSDDEADYYCQAWESGIWVFGGGTKLTVL", "EC50", 0.0251]
]}

We now examine a further binder.
Entry under test: MGU10variant1 (antibody, V domains shown, Expressed as IgG1 in Expi293F cells and tested as quantified culture supernatant; also called MGU10v1) VH: QVQLVESGGGVVQPGRSLRLSCAASGFAFSNYGMHWVRQAPGKGLEWVAVIWHDGSLKYYTQSVKGRFTISRDNAKNTLFLQMDSLSADDTAMYYCTVWYLETPDDGFDIWGQGTMVTVSS VL: QLVLTQPPSASASLGVSVTLTCTLSHGHTSKAIAWHQQQPGKGPRYLMKVNSDGSHTKGAAVPDRFSGSTSGAERHFTISNLQSDDEADYYCQAWDSGIWVFGGGTKLTVL . Its EC50 was 0.0225
